Experimental System: T1, ComA (Bacillus subtilis, UniProt P14204 1-214)
T1 sequence: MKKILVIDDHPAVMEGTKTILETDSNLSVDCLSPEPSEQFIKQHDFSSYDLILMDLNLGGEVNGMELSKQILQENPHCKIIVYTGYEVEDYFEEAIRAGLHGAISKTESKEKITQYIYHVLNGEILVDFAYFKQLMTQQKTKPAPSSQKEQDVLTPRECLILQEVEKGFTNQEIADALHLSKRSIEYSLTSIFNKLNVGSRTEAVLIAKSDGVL
Experiment: EMSA; EMSA: 10 mM HEPES pH 7.6, 2 mM MgCl2, 0.1 mM EDTA, 200 mM KCl, 5 mM DTT, 10% glycerol; 10 ng DNA in 15 ul, 20 min, room temperature
Condition: protein: recombinant; tags: N-terminal His6 (from expression primer); chain copies: 2; label: 5' biotin on strand 1; blunt

| Binder | binding result |
| --- | --- |
| PDR n2 (dsDNA) DNA 1: AAACTGGAATCGAAACTTTGCGGCCTTGCGGTGATAAAAACATTTTT DNA 2: AAAAATGTTTTTATCACCGCAAGGCCGCAAAGTTTCGATTCCAGTTT | no binding |
| PDR n9 (dsDNA) DNA 1: AAACTGGAATCGAAACTTTGCGGCCATTACCATTGCGGTGATAAAAACATTTTT DNA 2: AAAAATGTTTTTATCACCGCAATGGTAATGGCCGCAAAGTTTCGATTCCAGTTT | no binding |
| Ppel DR2 only (dsDNA) DNA 1: CGGCCGGTTTTTTTTTTTGCGGTCTTTGCGGTGGGAGTCTTTAGAAT DNA 2: ATTCTAAAGACTCCCACCGCAAAGACCGCAAAAAAAAAAACCGGCCG | no binding |
| Ppel IR-DR core (dsDNA) DNA 1: GGATTTTGCAGAATGCCGCAATAGGATAGCGGAACATTTTCGGTTCTG DNA 2: CAGAACCGAAAATGTTCCGCTATCCTATTGCGGCATTCTGCAAAATCC | binds |
